- Read-out: Interferon-gamma inducible Protein 10 (IP10), CXCL10 (gene 3627)
- ASSAY_OVERVIEW: BSK_BE3C_IP10: BioMAP Diversity Plus: BE3C Assay for Interferon-gamma inducible Protein 10 (IP10) Biomarker Activity (AID 2283034)
- RECORDED_CONDITIONS: primary human bronchial epithelial cells; actives raise or lower the signal
The source made the active and inactive calls. Rule for the calls: active = hit-call score of the fitted dose curve at least 0.9, where 1 is the maximum; inactive = score below 0.9.
Pick from 1 = active, -1 = inactive when you respond.

Solved cases below.
{"columns": ["COMPOUND", "CLASS"],
 "data": [
  ["CCOP(=O)(SC(C)CC)N1CCSC1=O (configuration not stated)", -1],
  ["CCOP(=S)(Oc1cnc(C(C)(C)C)nc1)OC(C)C (configuration not stated)", -1]
]}

QUERY: Dear all, I need the recorded test outcome for CSc1nnc(C(C)(C)C)c(=O)n1N , thank you.
RESULT: 1

QUERY: Dear all, I need the recorded test outcome for CN1COCN(Cc2cnc(Cl)s2)C1=N[N+](=O)[O-] , thank you.
RESULT: -1

QUERY: Dear all, I need the recorded test outcome for CN(C)C(=O)Nc1cccc(C(F)(F)F)c1 , thank you.
RESULT: -1

QUERY: Dear all, I need the recorded test outcome for C[Si](Cn1cncn1)(c1ccc(F)cc1)c1ccc(F)cc1 , thank you.
RESULT: -1

QUERY: Dear all, I need the recorded test outcome for CC[C@H](C)[C@H]1O[C@]2(C=C[C@@H]1C)C[C@@H]1C[C@@H](C/C=C(\C)[C@@H](O[C@H]3C[C@H](OC)[C@@H](O[C@H]4C[C@H](OC)[C@@H](NC)[C@H](C)O4)[C@H](C)O3)[C@@H](C)/C=C/C=C3\CO[C@@H]4[C@H](O)C(C)=C[C@@H](C(=O)O1)[C@]34O)O2 , thank you.
RESULT: 1

QUERY: Dear all, I need the recorded test outcome for CC1(C(=O)Nc2ccc(O)c(Cl)c2Cl)CCCCC1 , thank you.
RESULT: -1

QUERY: Dear all, I need the recorded test outcome for CON=C(C(=O)OC)c1ccccc1CON=C(C)c1cccc(C(F)(F)F)c1 , thank you.
RESULT: 1

QUERY: Dear all, I need the recorded test outcome for CNC(=O)ON=C(C)SC , thank you.
RESULT: -1

====

- ASSAY_OVERVIEW: ATG_EGR_CIS: Attagene CIS-FACTORIAL HepG2 Assay for human Early Growth Response 1 (EGR1) (AID 2282938)
- RECORDED_CONDITIONS: HepG2 Attagene CIS-FACTORIAL EGR reporter mRNA; actives raise or lower the signal
Activity calls are given as the source filed them. How the source made its calls: active means hit-call score of the fitted dose curve at least 0.9, where 1 is the maximum; inactive means score below 0.9.
Pick from active, inactive when you respond.

{"columns": ["MOLECULE", "CLASS"],
 "data": [
  ["CCC(=O)Nc1ccc(Cl)c(Cl)c1", "inactive"],
  ["CCOP(=O)(SC(C)CC)N1CCSC1=O (stereo not drawn)", "inactive"],
  ["CCOC(=O)COc1cc(-c2nn(C)c(OC(F)F)c2Cl)c(F)cc1Cl", "inactive"],
  ["COc1ccc(C(=CC(=O)N2CCOCC2)c2ccc(Cl)cc2)cc1OC", "active"]
]}

QUERY: Dear all, I need the recorded test outcome for CON=C(C(=O)OC)c1ccccc1CON=C(C)c1cccc(C(F)(F)F)c1 , thank you.
RESULT: inactive

QUERY: Dear all, I need the recorded test outcome for CCCOCC(=Nc1ccc(Cl)cc1C(F)(F)F)n1ccnc1 , thank you.
RESULT: inactive

QUERY: Dear all, I need the recorded test outcome for CC[C@H](C)[C@H]1O[C@]2(C=C[C@@H]1C)C[C@@H]1C[C@@H](C/C=C(\C)[C@@H](O[C@H]3C[C@H](OC)[C@@H](O[C@H]4C[C@H](OC)[C@@H](NC)[C@H](C)O4)[C@H](C)O3)[C@@H](C)/C=C/C=C3\CO[C@@H]4[C@H](O)C(C)=C[C@@H](C(=O)O1)[C@]34O)O2 , thank you.
RESULT: inactive
